Tested on: Sindbis virus
Assay: inhibition of virus induced cytopathogenicity, Vero cells, Sindbis virus
Format: cell-based
Description: Antiviral activity of some eudistomin derivatives was determined in a large number of in-vitro assays as described in reference 9. These tests are all based on the inhibition of virus induced cytopathogenicity. Depending upon the virus studied, different cell cultures were used. […] New compound 67 has the additional advantage of a 10-fold higher potency as compared with known compound 63.
OBSERVATION TYPE: MIC (µg/mL)
Record the value in µg/mL, omitting the unit from your answer.

>>> numeric_value("COc1ccc2[nH]c3c(c2c1)CCN1OCSCC(N)C31 [Compound 67, (1S,13bS)-5-methoxy Eudistomin L]")
0.045

Request: Fill in the blank: the reported MIC of N[C@@H]1CSCON2CCc3c([nH]c4ccccc34)[C@H]12 [Compound 63, (1S.13bS)-debromo Eudistomin L] is ____.
Response: 0.35

====

Reported MCC values for the following compounds.
assay: in vitro; settings: human, hela cells

>>> result("COc1ccc2[nH]c3c(c2c1)CCN1OCSCC(N)C31 [Compound 67, (1S,13bS)-5-methoxy Eudistomin L]")
"2 µg/mL"
>>> result("N[C@@H]1CSCON2CCc3c([nH]c4ccccc34)[C@H]12 [Compound 63, (1S.13bS)-debromo Eudistomin L]")
"≥ 4 µg/mL"

Now examine the next entry.
Request: Fill in the blank: the reported MCC of NC(=O)c1ncn([C@@H]2O[C@H](CO)[C@@H](O)[C@H]2O)n1 [Ribavirin, ribavirin, reference compound] is ____.
Response: ≥ 400 µg/mL

====

assay: cytotoxicity in Vero cell cultures; conditions: monkey, vero cells
OBSERVATION TYPE: MCC

Request: Fill in the blank: the reported MCC of c1ccc2c3c([nH]c2c1)C1CCSCON1CC3 (racemic) [Compound 50, (±)-Deamino, debromo Eudistomin L] is ____.
Response: ≥ 40 µg/mL

====

assay: cytotoxicity in Hela cell cultures; details: human, hela cells
OBSERVATION TYPE: MCC

Request: Fill in the blank: the reported MCC of c1ccc2c3c([nH]c2c1)C1CCSCON1CC3 (racemic) [Compound 50, (±)-Deamino, debromo Eudistomin L] is ____.
Response: ≥ 30 µg/mL

====

system: Coxsasckie virus B4; assay: inhibition of virus induced cytopathogenicity, Vero cells, Coxsackie virus B4; type: cell-based; details: Enterovirus B
OBSERVATION TYPE: MIC (µg/mL)
Record the value in µg/mL, omitting the unit from your answer.

>>> numeric_value("COc1ccc2[nH]c3c(c2c1)CCN1OCSCC(N)C31 [Compound 67, (1S,13bS)-5-methoxy Eudistomin L]")
0.07

Request: Fill in the blank: the reported MIC of N[C@@H]1CSCON2CCc3c([nH]c4ccccc34)[C@H]12 [Compound 63, (1S.13bS)-debromo Eudistomin L] is ____.
Response: 0.55

====

tested on: Coxsackie virus B4; assay: inhibition of virus induced cytopathogenicity, Hela cells, Coxsackie virus B4; type: cell-based; details: Enterovirus B
OBSERVATION TYPE: MIC (µg/mL)
Record the value in µg/mL, omitting the unit from your answer.

// solved cases for MIC follow
>>> numeric_value("COc1ccc2[nH]c3c(c2c1)CCN1OCSCC(N)C31 [Compound 67, (1S,13bS)-5-methoxy Eudistomin L]")
0.045
>>> numeric_value("NC(=O)c1ncn([C@@H]2O[C@H](CO)[C@@H](O)[C@H]2O)n1 [Ribavirin, ribavirin, reference compound]")
70

Now examine the next entry.
Request: Fill in the blank: the reported MIC of N[C@@H]1CSCON2CCc3c([nH]c4ccccc34)[C@H]12 [Compound 63, (1S.13bS)-debromo Eudistomin L] is ____.
Response: 0.55

Recorded values, source patent US5348949A.
